system: MDA-MB-436 (a BRCA-1-mutated breast cancer cell line); test: Cell proliferation assay, three-day, CellTiter-Glo, MDA-MB-436; type: cell-based; settings: Homo sapiens, MDA-MB-436, MDA-MB-436, Conc. 33.33 uM, replicate 2; read-out: Inh % 2
Catalogue of molecules with associated inhibition at 33.33 µM
Entry rule: numbers only, all in %.

For orientation, consider the following solved cases.
COc1ccc(C(=O)CCN2CCC(c3nc4c(C(N)=O)cccc4[nH]3)C2)cc1 (stereo not shown) [Compound 5ci]: 1.7
NC(=O)c1cccc2[nH]c(C3CCN(CCC(=O)Nc4ccccc4)C3)nc12 (stereo not shown) [Compound 5cb]: 9.8
NC(=O)c1cccc2[nH]c(C3CCN(CCC(=O)c4ccccc4)C3)nc12 (stereo not shown) [Compound 5cp]: 79.7

Just so you know, measured inhibition at 33.33 µM for NC(=O)c1cccc2[nH]c(C3CCN(CCCC(=O)c4ccccc4)C3)nc12 (stereo not shown) [Compound 5cc] came out at 38.7

inhibition at 33.33 µM measured on NC(=O)c1cccc2[nH]c(C3CCN(CCCNc4ccccc4)C3)nc12 (stereo not shown) [Compound 5ch] = -1.4

According to the records, this molecule O=C(c1cc(Cc2n[nH]c(=O)c3ccccc23)ccc1F)N1CCN(C(=O)C2CC2)CC1 [pc2, Olaparib, reference compound] displays inhibition at 33.33 µM of 43.1

Sample NC(=O)c1cccc2[nH]c(C3CCN(CC(O)c4ccccc4)C3)nc12 (stereo not shown) [Compound 5cf] ; inhibition at 33.33 µM observed: 8.3

Documented inhibition at 33.33 µM of NC(=O)c1cccc2[nH]c(C3CCN(CCNC(=O)c4ccccc4)C3)nc12 (stereo not shown) [Compound 5co] : 10.6

====

test system: CAPAN-1 (a BRCA-2-mutated pancreatic cancer cell line); experiment: Cell proliferation assay, three-day, CellTiter-Glo, CAPAN-1; assay type: cell-based; conditions: Homo sapiens; CAPAN-1, 100.00 uM, replicate 1; read-out: Inh % 1
Class yes (1): inhibition at 100 µM at least 40%. Class no (0): inhibition at 100 µM below 40%.

Would you please look over these solved cases?
NC(=O)c1cccc2[nH]c(C3CCN(CCCN4C(=O)c5ccccc5C4=O)C3)nc12 (stereo not drawn): no (0)
NC(=O)c1cccc2[nH]c(C3CCN(CC(O)c4ccccc4)C3)nc12 (stereo not drawn): no (0)
NC(=O)c1cccc2[nH]c(C3CCN(CCC(=O)c4ccc(Cl)cc4)C3)nc12 (stereo not drawn): yes (1)
NC(=O)c1cccc2[nH]c(C3CCN(CCCNc4ccccc4)C3)nc12 (stereo not drawn): yes (1)
COc1ccc(C(=O)CCN2CCC(c3nc4c(C(N)=O)cccc4[nH]3)C2)cc1 (stereo not drawn): yes (1)

Enquiry: Test whether the compound NC(=O)c1cccc2[nH]c(C3CCN(CC(=O)c4ccccc4)C3)nc12 (stereo not drawn) records inhibition at 100 µM of 40% or higher.
Return: yes (1)

Enquiry: Quick check, inhibition at 100 µM >= 40%? NC(=O)c1cccc2[nH]c(C3CCN(CCN4C(=O)c5ccccc5C4=O)C3)nc12 (stereo not drawn)
Return: no (0)

Enquiry: Exam item: decide whether the reported inhibition at 100 µM for NC(=O)c1cccc2[nH]c(C3CCN(CCCC(=O)c4ccccc4)C3)nc12 (stereo not drawn) is at least 40%.
Return: yes (1)

Provenance of the data: paper PMC6572064
